Target: HiBit-BRG1 fusion protein in stable HeLa cell line expressing HiBit-BRG1 and LgBit (Homo sapiens, UniProt P51532)
Construct: expressed in transfected cells
Sequence (P51532 whole entry, the tested form may be a part): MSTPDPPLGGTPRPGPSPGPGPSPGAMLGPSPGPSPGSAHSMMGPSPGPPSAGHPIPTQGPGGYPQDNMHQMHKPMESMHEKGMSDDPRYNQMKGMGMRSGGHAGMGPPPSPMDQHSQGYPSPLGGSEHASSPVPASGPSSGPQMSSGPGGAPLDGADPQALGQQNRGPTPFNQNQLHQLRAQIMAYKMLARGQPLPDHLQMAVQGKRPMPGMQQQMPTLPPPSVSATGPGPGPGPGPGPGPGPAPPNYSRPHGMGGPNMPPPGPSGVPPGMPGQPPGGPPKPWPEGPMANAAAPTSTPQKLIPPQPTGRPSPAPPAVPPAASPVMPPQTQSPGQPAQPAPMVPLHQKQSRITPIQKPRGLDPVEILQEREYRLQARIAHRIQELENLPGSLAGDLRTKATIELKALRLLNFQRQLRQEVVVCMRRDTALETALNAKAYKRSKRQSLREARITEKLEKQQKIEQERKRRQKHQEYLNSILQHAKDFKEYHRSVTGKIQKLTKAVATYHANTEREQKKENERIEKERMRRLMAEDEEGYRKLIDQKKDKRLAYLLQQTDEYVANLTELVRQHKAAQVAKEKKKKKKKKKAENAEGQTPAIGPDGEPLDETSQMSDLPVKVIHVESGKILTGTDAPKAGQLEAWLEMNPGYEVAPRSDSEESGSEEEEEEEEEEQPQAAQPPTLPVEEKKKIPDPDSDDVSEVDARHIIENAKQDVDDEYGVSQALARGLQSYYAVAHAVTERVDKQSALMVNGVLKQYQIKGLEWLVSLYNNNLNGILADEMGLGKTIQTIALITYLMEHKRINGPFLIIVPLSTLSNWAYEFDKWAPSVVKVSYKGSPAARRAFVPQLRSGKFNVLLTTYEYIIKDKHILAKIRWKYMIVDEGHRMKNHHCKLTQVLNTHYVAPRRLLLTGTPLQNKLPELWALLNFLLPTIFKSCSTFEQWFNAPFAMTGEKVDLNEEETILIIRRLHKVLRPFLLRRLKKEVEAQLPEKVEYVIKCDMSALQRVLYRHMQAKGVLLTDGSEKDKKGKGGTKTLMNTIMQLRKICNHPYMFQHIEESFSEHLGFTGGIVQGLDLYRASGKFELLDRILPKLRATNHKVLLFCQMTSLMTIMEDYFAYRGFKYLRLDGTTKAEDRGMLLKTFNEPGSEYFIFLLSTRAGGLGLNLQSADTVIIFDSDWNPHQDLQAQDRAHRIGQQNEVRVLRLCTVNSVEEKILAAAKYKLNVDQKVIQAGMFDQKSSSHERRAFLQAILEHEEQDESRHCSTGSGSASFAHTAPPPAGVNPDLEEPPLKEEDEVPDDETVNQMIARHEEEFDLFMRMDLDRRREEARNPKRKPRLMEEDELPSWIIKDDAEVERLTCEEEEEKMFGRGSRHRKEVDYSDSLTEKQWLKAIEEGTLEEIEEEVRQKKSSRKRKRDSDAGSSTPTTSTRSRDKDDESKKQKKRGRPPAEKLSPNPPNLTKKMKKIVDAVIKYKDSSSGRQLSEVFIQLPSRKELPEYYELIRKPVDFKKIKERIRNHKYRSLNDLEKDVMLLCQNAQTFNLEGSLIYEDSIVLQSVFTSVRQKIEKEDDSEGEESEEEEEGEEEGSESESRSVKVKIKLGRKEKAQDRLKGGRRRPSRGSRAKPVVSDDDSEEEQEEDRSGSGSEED
Test: HiBiT-BRG1 cell-based degradation assay (Nano-Glo HiBiT, 24 h)
Conditions: HeLa HiBit-BRG1/LgBit cells, read-out: BRMG1 HiBit Degradation IC50
A collection of compounds and their measured DC50

{"Compound": "Cc1ncsc1-c1ccc([C@H](C)NC(=O)[C@@H]2C[C@@H](O)CN2C(=O)[C@@H](c2cc(-c3cnc(N4CC5(CC(c6ccc7cc(-c8ccccc8O)nnc7c6)C5)C4)nc3)no2)C(C)C)cc1", "DC50": "> 10 nM"}
{"Compound": "Cc1ncsc1-c1ccc([C@H](C)NC(=O)[C@@H]2C[C@@H](O)CN2C(=O)[C@H](C(C)C)n2cc(-c3cc4cc(-c5ccccc5O)nnc4cc3C(F)F)nn2)cc1", "DC50": "< 10 nM"}
{"Compound": "Cc1ncsc1-c1ccc([C@H](C)NC(=O)[C@@H]2C[C@@H](O)CN2C(=O)[C@@H](c2cc(N3CCN([C@@H]4CCN(Cc5ccc6nnc(-c7ccccc7O)cc6c5)CC4(F)F)CC3)no2)C(C)C)cc1", "DC50": "< 10 nM"}
{"Compound": "Cc1ncsc1-c1ccc([C@H](C)NC(=O)[C@@H]2C[C@@H](O)CN2C(=O)C(C(C)C)n2cc(N3CCCC4(CCN(c5ccc6cc(-c7ccccc7O)nnc6c5)CC4)C3)nn2)cc1 (some centres unmarked)", "DC50": "< 10 nM"}
{"Compound": "Cc1ncsc1-c1ccc([C@H](C)NC(=O)[C@H]2C[C@H](O)CN2C(=O)C(c2cc(N3C[C@@H]4C[C@H]3CN4c3ccc4cc(-c5ccccc5O)nnc4c3)no2)C(C)C)cc1 (some centres unmarked)", "DC50": "> 10 nM"}

---

Biological target: HiBit-BRG1 fusion protein in stable HeLa cell line expressing HiBit-BRG1 and LgBit (Homo sapiens, UniProt P51532)
Construct: expressed in transfected cells
Assay: HiBiT-BRG1 cell-based degradation assay (Nano-Glo HiBiT, 24 h)
Conditions: HeLa HiBit-BRG1/LgBit cells, read-out: BRMG1 HiBit Degradation IC50
A collection of compounds and their measured DC50
Measured Endpoint: DC50

{"Compound": "Cc1ncsc1-c1ccc([C@H](C)NC(=O)[C@@H]2C[C@@H](O)CN2C(=O)C(c2cc(-c3cnc(N4CCC5(CC4)CC(c4ccc6cc(-c7ccccc7O)nnc6c4)C5)nc3)no2)C(C)C)cc1 (mixture of isomers) [Compound 65]", "Data Value": "> 10 nM"}
{"Compound": "CC(C)[C@@H](C(=O)N1C[C@H](O)C[C@H]1C(=O)N[C@@H](C)c1ccc(F)cc1)n1cc(-c2ccc3nnc(-c4cccc(F)c4O)cc3c2)nn1 [Compound 177]", "Data Value": "> 10 nM"}
{"Compound": "Cc1ncsc1-c1ccc([C@H](C)NC(=O)[C@@H]2C[C@@H](O)CN2C(=O)C(C(C)C)n2cc(N3CCC34CN(c3ccc5cc(-c6ccccc6O)nnc5c3)C4)nn2)cc1 (stereo partly shown) [Compound 265]", "Data Value": "> 100 nM"}
{"Compound": "Cc1ncsc1-c1ccc([C@H](C)NC(=O)[C@@H]2C[C@@H](O)CN2C(=O)[C@@H](c2cc(N3CCC(C(=O)N4CC(c5ccc6nnc(-c7ccccc7O)cc6c5)C4)CC3)no2)C(C)C)cc1 [Compound 7]", "Data Value": "> 100 nM"}
{"Compound": "Cc1ncsc1-c1ccc([C@H](C)NC(=O)[C@@H]2C[C@@H](O)CN2C(=O)C(C(C)C)n2cc(N3CCCC(CN4CCN(c5ccc6cc(-c7ccccc7O)nnc6c5)CC4)C3)nn2)cc1 (stereo partly shown) [Compound 261]", "Data Value": "> 10 nM"}
{"Compound": "Cc1ncsc1-c1ccc([C@H](C)NC(=O)[C@@H]2C[C@@H](O)CN2C(=O)[C@@H](c2cc(N3CCC4(CC3)CC(c3ccc5cc(-c6ccccc6O)nnc5c3)C4)no2)C(C)C)cc1 [Compound 26]", "Data Value": "> 10 nM"}
{"Compound": "Cc1ncsc1-c1ccc([C@H](C)NC(=O)[C@@H]2C[C@@H](O)CN2C(=O)[C@@H](c2cc(N3CC4(C3)CN(c3cc5nnc(-c6ccccc6O)cc5cc3C(F)F)C4)no2)C(C)C)cc1 [Compound 168]", "Data Value": "< 10 nM"}
{"Compound": "Cc1ncsc1-c1ccc([C@H](C)NC(=O)[C@@H]2C[C@@H](O)CN2C(=O)[C@@H](c2cc(N3CCC4(CC3)CN(c3ccc5nnc(-c6ccccc6O)cc5c3)C4)no2)C(C)C)cc1 [Compound 67]", "Data Value": "> 10 nM"}
{"Compound": "COc1cc2cc(-c3ccccc3O)nnc2cc1CN1CC[C@H](N2CCN(c3cc([C@H](C(=O)N4C[C@H](O)C[C@H]4C(=O)N[C@@H](C)c4ccc(-c5scnc5C)cc4)C(C)C)on3)CC2)C(F)(F)C1 [Compound 219]", "Data Value": "> 10 nM"}
{"Compound": "Cc1ncsc1-c1ccc([C@H](C)NC(=O)[C@@H]2C[C@@H](O)CN2C(=O)[C@H](C(C)C)n2cc(C3CC4(CC(c5ccc6nnc(-c7ccccc7O)cc6c5)C4)C3)nn2)cc1 (stereo partly shown) [Compound 230]", "Data Value": "> 10 nM"}

Just for reference, patent US20260193264A1 is where these values come from.
